Biological target: FSHR (Homo sapiens, UniProt P23945)
Sequence (P23945 18-695): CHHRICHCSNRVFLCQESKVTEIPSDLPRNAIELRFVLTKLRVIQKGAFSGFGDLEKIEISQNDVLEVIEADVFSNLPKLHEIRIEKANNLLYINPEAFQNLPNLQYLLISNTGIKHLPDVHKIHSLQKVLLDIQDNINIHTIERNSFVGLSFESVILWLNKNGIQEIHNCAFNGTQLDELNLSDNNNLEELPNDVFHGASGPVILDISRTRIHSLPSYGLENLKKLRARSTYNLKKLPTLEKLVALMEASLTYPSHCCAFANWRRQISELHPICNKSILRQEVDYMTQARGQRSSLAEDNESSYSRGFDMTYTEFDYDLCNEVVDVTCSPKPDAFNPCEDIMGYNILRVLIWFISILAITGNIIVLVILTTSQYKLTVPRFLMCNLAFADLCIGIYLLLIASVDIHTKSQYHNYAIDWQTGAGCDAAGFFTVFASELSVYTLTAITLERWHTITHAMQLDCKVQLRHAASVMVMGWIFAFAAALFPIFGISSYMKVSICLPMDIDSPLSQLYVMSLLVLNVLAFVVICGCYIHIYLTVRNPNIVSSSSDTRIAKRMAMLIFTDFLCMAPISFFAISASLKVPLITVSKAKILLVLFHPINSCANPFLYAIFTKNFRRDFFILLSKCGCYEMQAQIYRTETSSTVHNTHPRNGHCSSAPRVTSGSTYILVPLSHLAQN
Assay: EC50 of cyclic AMP production in CHO FSHR cells + EC20 FSH (Assay A)
Details: CHO-FSHR-LUC cells, in presence of EC20 FSH, cAMP HTRF, 1 h 37° C.
reported.metric: EC50

# query: EC50 of entry COc1cc2c(cc1OC(C)C)-n1c(-c3cn(C)nc3C)nc(C(=O)N3CCOCC3(C)C)c1CC2 > 5 µM

One more compound: COc1cc2c(cc1OC(C)C)-n1c(-c3cccs3)nc(C(=O)NC3(CO)COC3)c1CO2 1 to 5 µM

Same read-out for COc1cc2c(cc1OC(C)C)-n1c(-c3ccc(F)s3)nc(C(=O)N(C)C(C)(C)C)c1CC2 ? < 0.1 µM

And COc1cc2c(cc1OC(C)C)-n1c(-c3cccc(C(F)(F)F)c3)nc(C(=O)N(C)C(C)(C)C)c1CC2 ? 0.1 to 1 µM

Then COc1cc2c(cc1-c1ccn(C)n1)-n1c(-c3ccsc3)nc(C(=O)N(C)C(C)(C)C)c1CC2 ? 0.1 to 1 µM

Another compound to check: COc1cc2c(cc1OC)-n1c(-c3cccs3)nc(C(=O)N(C)C(C)(C)C)c1CC2 0.1 to 1 µM

Another: COCCCc1nc(C(=O)N2CCOCC2(C)C)c2n1-c1cc(OC(C)C)c(OC)cc1CC2 > 5 µM
